biological target: IL-17A : IL-17RA binding (Homo sapiens, UniProt Q16552, K93Q); construct: Name: IL-17A-Flag; test: IL-17A(FLAG-tagged):IL-17RA(His-tagged) binding disruption Eu-HTRF assay, Protocol 1; conditions: FLAG-IL-17A 2.5 nM at 2x final concentration; average if tested more than once
Sequence (Q16552 with tags, fused parts or gaps K93Q): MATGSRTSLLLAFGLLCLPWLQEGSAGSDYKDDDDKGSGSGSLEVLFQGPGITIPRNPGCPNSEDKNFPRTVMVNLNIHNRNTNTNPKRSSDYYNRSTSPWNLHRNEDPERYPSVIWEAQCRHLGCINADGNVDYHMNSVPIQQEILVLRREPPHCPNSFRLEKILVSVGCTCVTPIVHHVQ
Property: IC50

// returns IC50 for C[C@@H](NC(=O)CC(C(F)(F)F)C(F)(F)F)c1ccc2[nH]c([C@@H](NC(=O)c3ccnn3CC(F)(F)F)C3CCC(F)(F)CC3)nc2c1 [Example 129] with IL-17A : IL-17RA binding (Homo sapiens, UniProt Q16552, K93Q); value = > 0.1 µM

// returns IC50 for C[C@@H](NC(=O)CCC(F)(F)F)c1ccc2[nH]c([C@@H](NC(=O)c3cnn(CC(F)(F)F)n3)C3CCC(F)(F)CC3)nc2c1 [Example 22] with IL-17A : IL-17RA binding (Homo sapiens, UniProt Q16552, K93Q); value = > 0.1 µM

// returns IC50 for CC(C)n1nccc1C(=O)N[C@@H](COC1CC(F)(F)C1)c1nc2ccc([C@H](NC(=O)CC3CC(F)(F)C3)C3CC3)cc2[nH]1 [Example 257] with IL-17A : IL-17RA binding (Homo sapiens, UniProt Q16552, K93Q); value = > 0.1 µM

// returns IC50 for C[C@@H](NC(=O)CCC(F)(F)F)c1ccc2[nH]c([C@@H](NC(=O)C3CC3)C3CCC(F)(F)CC3)nc2c1 [Example 94] with IL-17A : IL-17RA binding (Homo sapiens, UniProt Q16552, K93Q); value = > 0.1 µM

// returns IC50 for C[C@@H](NC(=O)CC1CC(F)(F)C1)c1ccc2nc(C(COC(C)(C)C(F)(F)F)NC(=O)c3nonc3C3CC3)[nH]c2c1 (single isomer, unassigned) [Example 152] with IL-17A : IL-17RA binding (Homo sapiens, UniProt Q16552, K93Q); value = < 0.05 µM

// returns IC50 for C[C@@H](NC(=O)CCC(F)(F)F)c1ccc2[nH]c([C@@H](NC(=O)c3ncn(CCC(F)F)n3)C3CCC(F)(F)CC3)nc2c1 [Example 40] with IL-17A : IL-17RA binding (Homo sapiens, UniProt Q16552, K93Q); value = > 0.1 µM
